// provenance: patent US20220306762A1

# assay_target: Human CD38 on transiently transfected Expi293 cells (Origene SC321273) (human) (UniProt P28907)
# test_summary: flow cytometry, 10 ug/ml scFv-Fc, transfected Expi293 cells
# FACS percent gated values compiled below

{"binder": "40769p2.1.E1 scFv-Fc (scFv, part only; not given: Linker, domain order, Fc, V domains shown, not shown: another chain or arm of the molecule; a dimerising Fc or GST; small tags and cut ends) VH: EVQLLESGGGLIQPGGSLRLSCTASGFDFSSYGMHWVRQAPGKGLEWVAIISDSGGTTYYGDSVKGRFTISRDNSKSTLYLQMNSLRAEDTALYYCASYIMDVWGQGTTVTVSS VL: QSVLTQPPSASGTPEQRVTISCSGSNSNVGDNAVYWYQQLPGTAPKLLFYGTNRRPSGVPDRFSGSKSGTSASLAISGLQSEDEADYYCAAWDDSLNAWVFGGGTKLTVL", "FACS percent gated [%]": 75.4}
{"binder": "40769p2.1.E8 scFv-Fc (scFv, part only; not given: Linker, domain order, Fc, V domains shown, not shown: another chain or arm of the molecule; a dimerising Fc or GST; small tags and cut ends) VH: EVQLLESGGGLVQPGGSLRLSCTGFGFTFTDARMSWVRQAPGKGLEWVADISSYGDNTYYADSVKGRFTISRDNSANTLYVQMNSLRAEDTAVYYCAKRMEREVMTIKLDYHAMDVWGQGTTVTVSS VL: QSVLTQTPSVSGTPGQRVTISCSGVFNIRNYVSWYQQLPGTAPKLLIFKDDQRPSGVPDRFSGSRSGTSASLAISGLQSEDEADYYCAAWDIFLNVWVFGGGTKLTVL", "FACS percent gated [%]": 75.7}
{"binder": "40769p2.1.C1 scFv-Fc (scFv, part only; not given: Linker, domain order, Fc, V domains shown, not shown: another chain or arm of the molecule; a dimerising Fc or GST; small tags and cut ends) VH: EVQLLESGGGLVQPGGSLRLSCAASGFSFSDYWMNWVRQAPGKGLEWVSTISSGGNMIYYADSVKGRFTISRDNSKNTLYLRMNSLRAEDTAVYYCAKDNWNDYYGMDVWGQGTTVTVSS VL: QSVLTQPPSASGTPGQRVTISCSGSSSNIRDNYVYWYQQVPGTAPKLLIYKDDQRPSGVPDRFSGSKSGSSASLAISGLQSEDEADYYCATWDGSLNARVFGGGTKLTVL", "FACS percent gated [%]": 74.9}
{"binder": "40769p2.1.E5 scFv-Fc (scFv, part only; not given: Linker, domain order, Fc, V domains shown, not shown: another chain or arm of the molecule; a dimerising Fc or GST; small tags and cut ends) VH: EVQLLESGGGLVQPGGSLRLSCTASAHIFKYNWMSWVRQAPGKGLEWVSSINSDGTITYYTDSVKGRFTISRDNSKNTLYLQMNSLRAEDTAVYYCAKDNWNDYAIDVWGQGTTVTVSS VL: QSVLTQPPSASGTPGQRVTISCSGSRSDIRNNYVSWYQQLPGTAPKLLIYSNGQRPSGVPDRFSGSKSGTSASLAISGLQSEDEADYYCAIWDDSLNAWVFGGGTKLTVL", "FACS percent gated [%]": 76.3}
